These entries and their values trace back to paper PMC4739419.

target_or_test_system: T1, HpMutS2 (Helicobacter pylori 26695, UniProt O25338 1-762)
T1 sequence: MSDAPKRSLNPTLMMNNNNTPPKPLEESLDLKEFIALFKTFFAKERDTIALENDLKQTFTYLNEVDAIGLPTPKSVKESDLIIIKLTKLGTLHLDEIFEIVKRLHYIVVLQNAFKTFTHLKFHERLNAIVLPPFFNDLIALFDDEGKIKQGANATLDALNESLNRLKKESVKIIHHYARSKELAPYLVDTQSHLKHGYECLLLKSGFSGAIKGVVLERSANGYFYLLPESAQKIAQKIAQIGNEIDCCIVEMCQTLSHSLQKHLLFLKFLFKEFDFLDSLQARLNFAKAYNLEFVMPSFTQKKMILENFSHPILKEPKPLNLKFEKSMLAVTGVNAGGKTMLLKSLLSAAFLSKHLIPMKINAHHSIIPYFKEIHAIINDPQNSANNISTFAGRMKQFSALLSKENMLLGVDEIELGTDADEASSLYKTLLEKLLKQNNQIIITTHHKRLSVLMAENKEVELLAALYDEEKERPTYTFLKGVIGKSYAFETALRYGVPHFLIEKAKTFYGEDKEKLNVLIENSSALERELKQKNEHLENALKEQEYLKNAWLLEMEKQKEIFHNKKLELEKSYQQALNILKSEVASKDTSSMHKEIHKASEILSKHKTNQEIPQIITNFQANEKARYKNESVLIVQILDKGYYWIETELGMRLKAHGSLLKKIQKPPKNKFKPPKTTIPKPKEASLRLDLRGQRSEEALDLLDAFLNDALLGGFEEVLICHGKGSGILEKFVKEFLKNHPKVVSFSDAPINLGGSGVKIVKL
measurement_description: EMSA; 1 mM ATPgS; EMSA: 0.16 nM DNA, buffer A (50 mM Tris pH 8.0, 50 mM NaCl, 1 mM DTT per Fig. S3 legend) with 0.1 ug/ul BSA, NaCl 110 mM, no divalent metal stated, 30 min on ice, 8% native PAGE at 4 C; nucleotides 1 mM; Hill-slope fit
condition_details: protein: recombinant; tags: C-terminal His6; chain copies: 4; label: 5'-32P
assay_endpoint: Kd
Number first, unit second.

Find the recorded Kd belonging to ssDNA 63-mer (ODN4) (ssDNA) DNA: ATCGATAGTCGGATCCTCCAGACAGCTCCATGTAGCAAGGCACTGGTAGAATTCGGCAGCGTC and report it.
11.4 nM
